Catalogue of relative viability readings, one per entry.
- System: NCI-H1666
- test.summary: relative viability (nuclei count vs DMSO), 5 days (fraction); higher = more cells survive
- run.conditions: first compound 0.03162 µM

compound: CC(C)Oc1cc(Nc2nc(N[C@@H](C)c3ccc(F)cn3)ncc2Cl)n[nH]1 [AZ23] + Nc1ncn([C@H]2C[C@H](O)[C@@H](CO)O2)c(=O)n1 [Decitabine] (partner 2 µM)
relative viability: 0.755

compound: CC(C)Oc1cc(Nc2nc(N[C@@H](C)c3ccc(F)cn3)ncc2Cl)n[nH]1 [AZ23] + N=C(N)NC(=N)NCCc1ccccc1 [Phenformin] (partner 250 µM)
relative viability: 0.802

compound: CC(C)Oc1cc(Nc2nc(N[C@@H](C)c3ccc(F)cn3)ncc2Cl)n[nH]1 [AZ23] + COc1cccc2cc(-c3nc([C@H]4CC[C@H](C(=O)O)CC4)n4ncnc(N)c34)[nH]c12 [OSI-027] (partner 0.5 µM)
relative viability: 0.849

###

- Test system: NCI-H1915
- test.summary: relative viability (nuclei count vs DMSO), 5 days (fraction); higher = more cells survive
- run.conditions: first compound 0.8 µM

compound: CCCCCCCCCCCC1=C(O)C(=O)C=C(O)C1=O [Embelin] + CC1(C)CCC(c2ccc(Cl)cc2)=C(CN2CCN(c3ccc(C(=O)NS(=O)(=O)c4ccc(N[C@H](CCN5CCOCC5)CSc5ccccc5)c(S(=O)(=O)C(F)(F)F)c4)cc3)CC2)C1 [Navitoclax] (partner 0.5 µM)
target.or.test.system: NCI-H1915
relative viability: 0.784
--
compound: CCCCCCCCCCCC1=C(O)C(=O)C=C(O)C1=O [Embelin] + COc1cccc2cc(-c3nc([C@H]4CC[C@H](C(=O)O)CC4)n4ncnc(N)c34)[nH]c12 [OSI-027] (partner 0.5 µM)
target.or.test.system: NCI-H1915
relative viability: 0.707
--
compound: CCCCCCCCCCCC1=C(O)C(=O)C=C(O)C1=O [Embelin] + Cc1nc(Nc2ncc(C(=O)Nc3c(C)cccc3Cl)s2)cc(N2CCN(CCO)CC2)n1 [Dasatinib] (partner 0.075 µM)
target.or.test.system: NCI-H1915
relative viability: 0.361
--
compound: CCCCCCCCCCCC1=C(O)C(=O)C=C(O)C1=O [Embelin] + NC(=O)Nc1cc(-c2cccc(F)c2)sc1C(=O)N[C@H]1CCCNC1 [AZD7762] (partner 0.2 µM)
target.or.test.system: NCI-H1915
relative viability: 0.764

###

- Tested on: LU99A
- test.summary: relative viability (nuclei count vs DMSO), 5 days (fraction); higher = more cells survive
- run.conditions: first compound 4 µM

molecule: Clc1ccc(Nc2nnc(Cc3ccncc3)c3ccccc23)cc1 [Vatalanib] + CC1(C)CCC(c2ccc(Cl)cc2)=C(CN2CCN(c3ccc(C(=O)NS(=O)(=O)c4ccc(N[C@H](CCN5CCOCC5)CSc5ccccc5)c(S(=O)(=O)C(F)(F)F)c4)cc3)CC2)C1 [Navitoclax] (partner 0.5 µM)
relative viability: 0.859

molecule: C[C@@H]1CN(CC(=O)Nc2ccc3c(c2)Cc2cccc(-c4cc(=O)cc(N5CCOCC5)o4)c2S3)C[C@H](C)O1 + O=C(c1cc(Cc2n[nH]c(=O)c3ccccc23)ccc1F)N1CCN(C(=O)C2CC2)CC1 [Olaparib] (partner 8 µM)
relative viability: 0.246

molecule: Clc1ccc(Nc2nnc(Cc3ccncc3)c3ccccc23)cc1 [Vatalanib] + O=C(CCCCCCC(=O)Nc1ccccc1)NO [Vorinostat] (partner 1 µM)
relative viability: 0.467

molecule: COc1cc(N2CCC(C(N)=O)CC2)ccc1Nc1nc(N)c(Cl)c(Nc2ccccc2S(=O)(=O)C(C)C)n1 [HG-5-88-01] + CS(=O)(=O)CCNCc1ccc(-c2ccc3ncnc(Nc4ccc(OCc5cccc(F)c5)c(Cl)c4)c3c2)o1 [Lapatinib] (partner 2 µM)
relative viability: 0.721
